Target: GPR6 (Homo sapiens, UniProt P46095)
Construct: expressed in transfected cells; host or cells: CHO cells
Sequence (P46095 whole entry): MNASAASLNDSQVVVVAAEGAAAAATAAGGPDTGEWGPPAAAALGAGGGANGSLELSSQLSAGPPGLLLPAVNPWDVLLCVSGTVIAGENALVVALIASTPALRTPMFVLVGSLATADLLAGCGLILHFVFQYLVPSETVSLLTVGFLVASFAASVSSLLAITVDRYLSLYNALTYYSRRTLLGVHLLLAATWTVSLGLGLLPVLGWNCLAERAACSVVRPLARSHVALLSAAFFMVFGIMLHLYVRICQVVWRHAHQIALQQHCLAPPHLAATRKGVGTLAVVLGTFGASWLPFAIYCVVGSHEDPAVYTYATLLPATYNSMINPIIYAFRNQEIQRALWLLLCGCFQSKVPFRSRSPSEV
Experiment: GPR6 antagonist functional cAMP assay (LANCE Ultra cAMP TR-FRET, CHO cells stably expressing GPR6)
Format: cell-based
Conditions: CHO cells stably expressing GPR6, cAMP assay
Method: Example 56. GPR6 and GPR3 Antagonist Functional cAMP Assay CHO cells stably expressing GPR6 or GPR3 receptors were dissociated from cell culture flasks and incubated for 2 h at 37° C. in a 10 cm dish in a humidified incubator. […] To measure cAMP levels, LANCE® Ultra cAMP assay (Perkin Elmer), a homogeneous time-resolved fluorescence resonance energy transfer (TR-FRET) immunoassay was used following manufacturer's recommendations. […] FRET values were reported as readings obtained at 665 nm. […]
pIC50: −log10 of the molar value.
PROPERTY: pIC50

Some solved cases for reference:
COMPOUND	pIC50
CC(=O)N1CCc2nc(N3CCN(Cc4cccs4)CC3)c(-c3cnn(C)c3)nc2C1	4.52 to 6.00
CC(=O)N1CCc2nc(N3CCN(Cc4cscn4)CC3)c(-c3cnn(C)c3)nc2C1	4.52 to 6.00
CC(C)(O)[C@@H](O)c1cc2nc(N3CCC(Oc4ccc(F)cc4F)CC3)c(-c3cnn(CF)c3)nc2cn1 (single isomer, unassigned)	6.00 to 7.00
CC(=O)N1CCc2nc(N3CCC(=Cc4ccc(F)cc4)CC3)c(-c3cnn(C)c3)nc2C1	> 7.00
CC(C)(O)C(O)c1cc2nc(-c3cnn(C(F)F)c3)c(N3CCN(Cc4ccc(F)cc4F)CC3)nc2cn1 (single isomer, unassigned) [Compound 586]	> 7.00
CC(=O)N1CCc2nc(N3CCN(Cc4ccco4)CC3)c(-c3cnn(C)c3)nc2C1	4.52 to 6.00

Let's switch to this compound now.
Dear colleague, I am looking for the recorded pIC50 of the following compound: CC(=O)N1CCc2nc(N3CCN(Cc4ccoc4)CC3)c(-c3cnn(C)c3)nc2C1
4.52 to 6.00

* * *

Target: GPR6 (Homo sapiens)
Construct: expressed in transfected cells; host or cells: CHO cells
Assay: GPR6 antagonist functional cAMP assay (LANCE Ultra cAMP TR-FRET, CHO cells stably expressing GPR6)
Assay type: cell-based
Conditions: CHO cells stably expressing GPR6, cAMP assay (Example 24)
PROPERTY: IC50

Some solved cases for reference:
MOLECULE	IC50
COCc1cccc(-c2nc3c(nc2N2CCC(Oc4ccc(F)cc4F)CC2)CCN(C(C)=O)C3)n1 [Compound 161]	1000 to 30000 nM
CC(=O)N1CCc2nc(N3CCC(Oc4ccc(F)cc4F)CC3)c(-c3cnn(C4CC4)c3)nc2C1 [Compound 164]	100 to 1000 nM
CC(=O)N1CCc2nc(N3CCC(Oc4ccc(F)cc4F)CC3)c(-c3cnn(C(C)C)c3)nc2C1 [Compound 165]	< 100 nM
COc1cccc(-c2nc3c(nc2N2CCC(Oc4ccc(F)cc4F)CC2)CCN(S(C)(=O)=O)C3)n1 [Compound 59]	1000 to 30000 nM
C[C@H]1CN(Cc2ccc(F)cc2F)CCN1c1nc2ccncc2nc1-c1cnn(C)c1 (single isomer, unassigned) [Compound 225]	100 to 1000 nM

Each molecule below has a recorded value; state its IC50.
1. COC(C)(C)C(=O)N1CCc2nc(N3CCC(Oc4ccc(F)cc4F)CC3)c(-c3cnn(C4CCCCO4)c3)nc2C1 (stereo not drawn) [Compound 173]
2. CC(=O)N1CCc2nc(N3CCC(C(=O)N(C)c4ccc(F)cc4F)C3)c(-c3cnn(C)c3)nc2C1 (stereo not drawn) [Compound 392]

1: 1000 to 30000 nM; 2: ≥ 30000 nM

* * *

Please respond with reported IC50 for every item in the list.
Target: GPR6 (Homo sapiens, UniProt P46095)
Construct: expressed in transfected cells; host or cells: CHO cells
Experiment: GPR6 antagonist functional cAMP assay (LANCE Ultra cAMP TR-FRET, CHO cells stably expressing GPR6)
Type: cell-based
Conditions: CHO cells stably expressing GPR6, cAMP assay (Example 24)

Some solved cases for reference:
COMPOUND	RECORDED_MEASUREMENT
CC(=O)N1CCc2nc(N3CCN(Cc4ccccc4F)CC3)c(-c3cnn(C)c3)nc2C1	0.1 to 1 µM
CC(=O)N1CCc2nc(N3CCN(C(=O)c4ccc(F)cc4Cl)CC3)c(-c3cnn(C)c3)nc2C1	1 to 30 µM
CC(=O)N1CCc2nc(N3CCC(C(=O)N(C)C)C3)c(-c3cnn(C)c3)nc2C1 (stereo not shown)	≥ 30 µM
Cn1cc(-c2nc3cnc(OCCO)cc3nc2N2CCC(Oc3ccc(F)cc3F)CC2)cn1	1 to 30 µM
CC(=O)N1CCc2nc(N3CCC(Oc4ccc(F)cc4F)CC3)c(-c3ccnc(C)n3)nc2C1	0.1 to 1 µM
CC(=O)N1CC=C(c2nc3c(nc2N2CCC(Oc4ccc(F)cc4F)CC2)CCN(C(C)=O)C3)CC1	1 to 30 µM

Each compound below has a recorded value; state its IC50.
1. CC(=O)N1CCc2nc(N3CCC(Oc4ccc(F)cc4F)CC3)c(C3CCS(=O)(=O)CC3)nc2C1
2. CC(=O)N1CCc2nc(N3CCC(Oc4cc(Cl)ccc4Cl)CC3)c(-c3cnn(C)c3)nc2C1
3. CC(=O)N1CCc2nc(N3CCC(Oc4ccccc4)CC3)c(-c3cnn(C)c3)nc2C1
4. CC(=O)N1CCc2nc(N3CCC(Oc4cccc(F)c4)C3)c(-c3cnn(C)c3)nc2C1 (stereo not shown)

1 to 30 µM
< 0.1 µM
1 to 30 µM
1 to 30 µM

* * *

Please respond with reported IC50 for every item in the list.
Target: GPR3 (Homo sapiens, UniProt P46089)
Construct: expressed in transfected cells; host or cells: CHO cells
Sequence (P46089 whole entry, species assumed): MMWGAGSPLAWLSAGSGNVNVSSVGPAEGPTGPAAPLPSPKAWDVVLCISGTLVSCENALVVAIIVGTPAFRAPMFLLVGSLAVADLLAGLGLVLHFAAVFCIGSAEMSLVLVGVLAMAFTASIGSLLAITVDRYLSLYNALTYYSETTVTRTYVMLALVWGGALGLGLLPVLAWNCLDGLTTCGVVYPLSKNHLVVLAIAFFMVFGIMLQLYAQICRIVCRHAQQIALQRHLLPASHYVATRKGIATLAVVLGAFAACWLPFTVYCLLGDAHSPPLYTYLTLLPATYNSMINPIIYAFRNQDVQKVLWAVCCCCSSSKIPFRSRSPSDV
Experiment: GPR3 antagonist functional cAMP assay (LANCE Ultra cAMP TR-FRET, CHO cells stably expressing GPR3)
Format: cell-based
Conditions: CHO cells stably expressing GPR3, cAMP assay
Method: Example 56. GPR6 and GPR3 Antagonist Functional cAMP Assay CHO cells stably expressing GPR6 or GPR3 receptors were dissociated from cell culture flasks and incubated for 2 h at 37° C. in a 10 cm dish in a humidified incubator. […] To measure cAMP levels, LANCE® Ultra cAMP assay (Perkin Elmer), a homogeneous time-resolved fluorescence resonance energy transfer (TR-FRET) immunoassay was used following manufacturer's recommendations. […] FRET values were reported as readings obtained at 665 nm. […]

Some solved cases for reference:
COMPOUND	IC50
CC(=O)N1CCc2nc(N3CCN(C(O)c4cocn4)CC3)c(-c3cnn(C)c3)nc2C1 (centres unmarked)	≥ 30 µM
CC(=O)N1CCc2nc(N3CCC(=Cc4ccc(F)cc4)CC3)c(-c3cnn(C)c3)nc2C1	0.1 to 1 µM

Each compound below has a recorded value; state its IC50.
1. CC(=O)N1CCc2nc(N3CCN(Cc4cc(Cl)ccc4Cl)CC3)c(-c3ccc(F)c(N)n3)nc2C1
2. Cn1cc(-c2nc3cnc([C@@H](O)C(C)(C)O)cc3nc2N2CCN(Cc3ccc(F)cc3F)CC2)cn1 (single isomer, unassigned)
3. CC(=O)N1CCc2nc(N3CCN(Cc4ccccc4C)CC3)c(-c3cnn(C)c3)nc2C1
4. Cn1cc(-c2nc3cc(C(C)(O)C(C)(C)O)ncc3nc2N2CCN(Cc3ccc(F)cc3F)CC2)cn1 (centres unmarked)
5. CC(=O)N1CCc2nc(N3CCN(Cc4c[nH]cn4)CC3)c(-c3cnn(C)c3)nc2C1
6. CC(=O)N1CCc2nc(N3CCC(C(=O)c4ccc(F)cc4F)CC3)c(-c3cnn(C)c3)nc2C1

1: 1 to 30 µM; 2: 1 to 30 µM; 3: 1 to 30 µM; 4: 1 to 30 µM; 5: ≥ 30 µM; 6: 1 to 30 µM

* * *

Target: GPR3 (Homo sapiens)
Construct: expressed in transfected cells; host or cells: CHO cells
Experiment: GPR3 antagonist functional cAMP assay (LANCE Ultra cAMP TR-FRET, CHO cells stably expressing GPR3)
Format: cell-based
Conditions: procedure as described in Example 24
Please respond with reported IC50 for every item in the list.

Some solved cases for reference:
MOLECULE	IC50
CC(=O)N1CCc2nc(N3CCC(Oc4ccc(F)cc4F)CC3)c(-c3cncnc3)nc2C1 [Compound 34]	1000 to 30000 nM
CC(=O)N1CCc2nc(N3CCC(Oc4ccc(F)cc4F)CC3)c(-c3cnc4n3CCN(C(C)=O)C4)nc2C1 [Compound 17]	1000 to 30000 nM
CC(=O)N1CCc2nc(N3CCC(Oc4ccc(F)cc4F)CC3)c(-c3ccc(=O)n(C)c3)nc2C1 [Compound 21]	1000 to 30000 nM
Fc1ccc(Cl)cc1CN1CCN(c2nc3cnccc3nc2-c2ncc[nH]2)CC1 [Compound 42]	100 to 1000 nM
Fc1ccc(OC2CCN(c3nc4ccncc4nc3-c3ncc[nH]3)CC2)c(F)c1 [Compound 41]	1000 to 30000 nM

Each molecule below has a recorded value; state its IC50.
1. CC(=O)N1CCc2nc(N3CCC(Oc4ccc(F)cc4F)CC3)c(-c3ccn(C(=O)OC(C)(C)C)c3)nc2C1 [Compound 53]
2. CC(=O)N1CCc2nc(N3CCC(Oc4ccc(F)cc4F)CC3)c(-c3cnsc3)nc2C1 [Compound 8]
3. CC(=O)N1CCc2nc(N3CCC(Oc4ccc(F)cc4F)CC3)c(-c3cccc(C(F)(F)F)n3)nc2C1 [Compound 50]

1. 100 to 1000 nM
2. 1000 to 30000 nM
3. 1000 to 30000 nM
